Observed Kd, system H3 K9Me2 (FAM-QTAR-KMe2-STG-NH2) (Homo sapiens).
Give bare numbers, in µM.

molecule: O=C(O)C1=C(C(=O)O)[C@@H]2c3ccc4cc3[C@H]1c1ccc(cc12)SSc1ccc2c(c1)[C@H]1C(C(=O)O)=C(C(=O)O)[C@@H]2c2cc(ccc21)SSc1cc(cc(C(=O)O)c1)SS4 [meso-A2B]
Kd (µM): 73

# context switch: different molecule, same Kd
Which Kd is reported for this molecule? O=C(O)C1=C(C(=O)O)C2c3ccc4cc3C1c1ccc(cc12)SSc1ccc2c(c1)C1C(C(=O)O)=C(C(=O)O)C2c2cc(ccc21)SSc1cc(cc(C(=O)O)c1)SS4 (racemic) [rac-A2B] 58
